- assayed_target: Amyloid-beta precursor protein (Homo sapiens) (UniProt P05067)
- Sequence (P05067 whole entry): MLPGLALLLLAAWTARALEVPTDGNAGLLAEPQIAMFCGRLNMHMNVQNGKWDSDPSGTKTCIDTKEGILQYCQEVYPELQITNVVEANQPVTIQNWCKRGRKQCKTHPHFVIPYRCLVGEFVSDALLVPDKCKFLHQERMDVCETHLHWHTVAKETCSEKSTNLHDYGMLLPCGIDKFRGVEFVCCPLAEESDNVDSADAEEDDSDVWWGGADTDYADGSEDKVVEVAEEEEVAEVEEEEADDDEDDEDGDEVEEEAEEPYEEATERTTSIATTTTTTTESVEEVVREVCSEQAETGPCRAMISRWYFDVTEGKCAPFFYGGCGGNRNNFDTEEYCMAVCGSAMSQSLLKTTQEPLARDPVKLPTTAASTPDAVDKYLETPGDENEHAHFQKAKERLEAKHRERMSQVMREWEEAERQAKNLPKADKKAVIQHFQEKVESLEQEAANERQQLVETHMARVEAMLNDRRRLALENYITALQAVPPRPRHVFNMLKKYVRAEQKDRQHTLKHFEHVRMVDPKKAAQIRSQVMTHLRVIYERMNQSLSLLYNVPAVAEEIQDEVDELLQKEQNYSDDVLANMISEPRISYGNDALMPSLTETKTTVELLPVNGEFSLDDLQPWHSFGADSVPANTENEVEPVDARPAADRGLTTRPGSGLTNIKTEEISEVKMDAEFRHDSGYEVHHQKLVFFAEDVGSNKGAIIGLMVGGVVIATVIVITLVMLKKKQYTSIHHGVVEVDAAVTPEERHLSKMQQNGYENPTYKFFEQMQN
- test_method_notes: Inhibition of amyloid beta (unknown origin) fibril formation at 10 uM by thioflavin T fluorescent dye assay
recorded_endpoint: inhibition (%)
// note: answer is a bare numeric in %

// known answers, use as guide
>>> observed("COc1ccc(-c2cc3cc(/C=C/C(=O)O)cc(OC)c3o2)cc1")
12.5
>>> observed("CN(C)c1cc(-c2cc3cc(/C=C/C(=O)O)cc(O)c3o2)ccc1F")
16.8
>>> observed("COc1cc(/C=C/C(=O)O)cc2cc(-c3ccc(N(C)C)c(F)c3)oc12")
57.5
>>> observed("O=C(O)/C=C/c1cc(O)c2oc(-c3ccccc3F)cc2c1")
19.7
>>> observed("CN(C)c1ccc(-c2cc3cc(/C=C/C(=O)O)ccc3o2)cc1")
57

Identify measured inhibition associated with COc1cccc(-c2cc3cc(/C=C/C(=O)O)cc(OC)c3o2)c1
0
